These data points were gathered from patent US11753413B2.

target: catalytic domain (JH1) of human JAK2 (Homo sapiens); assay: JAK2 HTRF Enzyme Activity Assay; type: biochemical; design: JH1, amino acids 808-1132; His (N); purchased BPS Bioscience 40450; host or cells: baculovirus expression system; settings: ATP 30 μM or 1 mM (not given), read-out: ENZ
Sequence (O60674 808-1132): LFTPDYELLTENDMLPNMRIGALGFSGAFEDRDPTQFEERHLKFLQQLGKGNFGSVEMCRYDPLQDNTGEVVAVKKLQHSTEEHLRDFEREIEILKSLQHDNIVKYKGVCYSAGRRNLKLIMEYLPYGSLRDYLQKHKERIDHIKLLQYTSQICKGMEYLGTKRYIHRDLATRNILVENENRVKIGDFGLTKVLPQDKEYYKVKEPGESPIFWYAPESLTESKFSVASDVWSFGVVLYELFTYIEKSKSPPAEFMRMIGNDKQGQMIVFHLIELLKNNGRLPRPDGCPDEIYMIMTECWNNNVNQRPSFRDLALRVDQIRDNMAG
Please respond with reported IC50 for every item in the list.

Solved entries:
CCS(=O)(=O)Nc1ccc(Cn2cc(-c3ccn4nc(NC(=O)C5CC5)nc(Nc5cccc(-c6ncn(C)n6)c5OC)c34)cn2)cc1 [Example 3]; > 10 µM
COc1c(Nc2nc(NC(=O)C3CC3)nn3ccc(-c4cnn(Cc5cccnc5)c4)c23)cccc1C(F)(F)F [Example 5]; > 10 µM
COc1c(Nc2nc(NC(=O)C3CC3)nn3ccc(-c4cnn(Cc5ccc(C(=O)O)cc5)c4)c23)cccc1C(F)(F)F [Example 6]; 1 to 10 µM
CCS(=O)(=O)Nc1ccc(Cn2cc(-c3ccn4nc(NC(=O)C5CC5)nc(Nc5cccc(C(F)(F)F)c5OC)c34)cn2)cc1 [Example 1]; > 10 µM
COc1c(Nc2nc(NC(=O)C3CC3)nn3ccc(-c4cnn(Cc5ccc(NS(=O)(=O)C6CC6)cc5)c4)c23)cccc1C(F)(F)F [Example 2]; > 10 µM

Let us examine a further case.
Consider the molecule shown here: COc1c(Nc2nc(NC(=O)C3CC3)nn3ccc(-c4cnn(Cc5ccc(NS(C)(=O)=O)cc5)c4)c23)cccc1-c1ncn(C)n1 [Example 4] What is its recorded IC50?
> 10 µM

###

Please respond with reported pIC50 for every item in the list.
target: pseudo-kinase domain (JH2) of human V617F mutant JAK2 (Homo sapiens, UniProt O60674, F794H/V617F/W659A/W777A); construct: JH2, amino-acids 536-812 with 3 surface mutations; His (C); assay: JAK2 LanthaScreen JH2-V617F Binding Assay; conditions: read-out: JH2 BIND V617F
Sequence (O60674 536-812 V617F/W659A/W777A/F794H): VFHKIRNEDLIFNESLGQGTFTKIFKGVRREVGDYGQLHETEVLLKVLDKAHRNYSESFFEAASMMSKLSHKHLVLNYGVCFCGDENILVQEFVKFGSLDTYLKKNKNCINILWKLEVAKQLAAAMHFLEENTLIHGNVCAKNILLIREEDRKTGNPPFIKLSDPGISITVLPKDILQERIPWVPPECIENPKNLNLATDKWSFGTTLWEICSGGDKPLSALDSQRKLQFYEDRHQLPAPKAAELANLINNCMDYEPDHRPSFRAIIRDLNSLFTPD
pIC50: −log10 of the molar value.

Solved entries:
COc1c(Nc2nc(NC(=O)C3CC3)nn3ccc(-c4cnn(Cc5ccc(NS(=O)(=O)C6CC6)cc5)c4)c23)cccc1C(F)(F)F; ≥ 7.00
COc1c(Nc2nc(NC(=O)C3CC3)nn3ccc(-c4cnn(Cc5ccc(C(=O)O)cc5)c4)c23)cccc1C(F)(F)F; ≥ 7.00
CCS(=O)(=O)Nc1ccc(Cn2cc(-c3ccn4nc(NC(=O)C5CC5)nc(Nc5cccc(-c6ncn(C)n6)c5OC)c34)cn2)cc1; 6.30 to 7.00

// each listed molecule needs a value for pIC50
1. COc1c(Nc2nc(NC(=O)C3CC3)nn3ccc(-c4cnn(Cc5cccnc5)c4)c23)cccc1C(F)(F)F
2. COc1c(Nc2nc(NC(=O)C3CC3)nn3ccc(-c4cnn(Cc5ccc(NS(C)(=O)=O)cc5)c4)c23)cccc1-c1ncn(C)n1
3. CCS(=O)(=O)Nc1ccc(Cn2cc(-c3ccn4nc(NC(=O)C5CC5)nc(Nc5cccc(C(F)(F)F)c5OC)c34)cn2)cc1

1. 5.00 to 6.00
2. 6.30 to 7.00
3. ≥ 7.00

###

biological target: pseudo-kinase domain (JH2) of human Wild Type JAK2 (Homo sapiens, UniProt O60674, F794H/W659A/W777A); construct: JH2, amino-acids 536-812 with 3 surface mutations; His (C); purchased BPS Bioscience 79463; host or cells: baculovirus expression system; experiment: JAK2 LanthaScreen JH2-WT Binding Assay; details: read-out: JH2 BIND WT
Sequence (O60674 536-812 W659A/W777A/F794H): as the sequence (O60674 536-812 V617F/W659A/W777A/F794H) above, with F82V counted along it
Please respond with reported IC50 for every item in the list.

Solved entries:
COc1c(Nc2nc(NC(=O)C3CC3)nn3ccc(-c4cnn(Cc5ccc(C(=O)O)cc5)c4)c23)cccc1C(F)(F)F; ≤ 100 nM
COc1c(Nc2nc(NC(=O)C3CC3)nn3ccc(-c4cnn(Cc5ccc(NS(C)(=O)=O)cc5)c4)c23)cccc1-c1ncn(C)n1; 100 to 500 nM
COc1c(Nc2nc(NC(=O)C3CC3)nn3ccc(-c4cnn(Cc5ccc(NS(=O)(=O)C6CC6)cc5)c4)c23)cccc1C(F)(F)F; ≤ 100 nM
COc1c(Nc2nc(NC(=O)C3CC3)nn3ccc(-c4cnn(Cc5cccnc5)c4)c23)cccc1C(F)(F)F; 1000 to 10000 nM
CCS(=O)(=O)Nc1ccc(Cn2cc(-c3ccn4nc(NC(=O)C5CC5)nc(Nc5cccc(C(F)(F)F)c5OC)c34)cn2)cc1; ≤ 100 nM

Let us examine a further case.
Consider the molecule shown here: CCS(=O)(=O)Nc1ccc(Cn2cc(-c3ccn4nc(NC(=O)C5CC5)nc(Nc5cccc(-c6ncn(C)n6)c5OC)c34)cn2)cc1 What is its recorded IC50?
≤ 100 nM
